# Test system: human L-Selectin-IgG-chimera (Homo sapiens)
# Construct: IgG (chimera partner)
# Sequence (P14151 with tags, fused parts or gaps limits assumed): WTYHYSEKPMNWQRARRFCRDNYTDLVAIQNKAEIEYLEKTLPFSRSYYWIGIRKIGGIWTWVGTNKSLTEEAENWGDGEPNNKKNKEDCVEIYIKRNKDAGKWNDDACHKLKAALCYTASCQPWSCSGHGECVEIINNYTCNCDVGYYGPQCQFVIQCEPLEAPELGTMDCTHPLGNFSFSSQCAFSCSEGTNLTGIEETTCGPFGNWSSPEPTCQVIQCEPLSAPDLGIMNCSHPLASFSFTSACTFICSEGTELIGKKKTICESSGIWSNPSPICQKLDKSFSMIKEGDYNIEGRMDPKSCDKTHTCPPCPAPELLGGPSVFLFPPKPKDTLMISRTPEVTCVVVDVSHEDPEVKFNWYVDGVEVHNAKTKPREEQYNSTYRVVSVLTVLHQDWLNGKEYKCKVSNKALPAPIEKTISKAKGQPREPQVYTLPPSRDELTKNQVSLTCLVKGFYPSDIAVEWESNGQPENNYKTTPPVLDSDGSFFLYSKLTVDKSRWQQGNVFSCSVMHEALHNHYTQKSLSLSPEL
# Assay info: Sialyl Lewis X Tyrosine Sulfate Assay (sLex TSA), L-selectin
# Reported conditions: inhibition of binding of sLex-tyrosine sulfate polyacrylamide ligand complex to selectin chimera
Value kind: pIC50
// pIC50 is dimensionless: -log10 of concentration (M)

In: # query: pIC50 of entry O=C(Nc1ccccc1-c1cccs1)c1cccc(-c2c(O)cc(O)cc2O)c1 [Compound 65]
Out: 4.81

In: // repeat for O=C(O)c1cccc(NC(=O)c2cccc(-c3c(O)cc(O)cc3O)c2)c1 [Compound 67] and report
Out: 4.60

In: // repeat for O=C(Cc1c(O)cc(O)cc1O)Nc1cccc(C(=O)O)c1 [Compound 18] and report
Out: 4.45

In: // repeat for O=C(O)Cc1ccc(-c2cccc(NC(=O)c3cccc(-c4c(O)cc(O)cc4O)c3)c2)s1 [Compound 64] and report
Out: 5.20

In: // repeat for Cc1oc(-c2ccc(NC(=O)c3cccc(-c4c(O)cc(O)cc4O)c3)cc2)cc1C(=O)O [Compound 60] and report
Out: 5.21

In: // repeat for O=C(O)Cc1ccc(-c2ccccc2NC(=O)c2cccc(-c3c(O)cc(O)cc3O)c2)s1 [Compound 63] and report
Out: 4.76

In: // repeat for O=C(Nc1ccccc1-c1ccc(C(=O)O)s1)c1cccc(-c2c(O)cc(O)cc2O)c1 [Compound 26] and report
Out: 4.55

In: // repeat for Cc1oc(-c2ccc(NC(=O)Cc3c(O)cc(O)cc3O)cc2)cc1C(=O)O [Compound 19] and report
Out: 4.66

In: // repeat for O=C(O)Cc1ccc(-c2ccccc2NC(=O)Cc2c(O)cc(O)cc2O)s1 [Compound 25] and report
Out: 4.02

====

# Test system: human E-Selectin-IgG-chimera (Homo sapiens, UniProt P16581)
# Sequence (P16581 with tags, fused parts or gaps limits assumed): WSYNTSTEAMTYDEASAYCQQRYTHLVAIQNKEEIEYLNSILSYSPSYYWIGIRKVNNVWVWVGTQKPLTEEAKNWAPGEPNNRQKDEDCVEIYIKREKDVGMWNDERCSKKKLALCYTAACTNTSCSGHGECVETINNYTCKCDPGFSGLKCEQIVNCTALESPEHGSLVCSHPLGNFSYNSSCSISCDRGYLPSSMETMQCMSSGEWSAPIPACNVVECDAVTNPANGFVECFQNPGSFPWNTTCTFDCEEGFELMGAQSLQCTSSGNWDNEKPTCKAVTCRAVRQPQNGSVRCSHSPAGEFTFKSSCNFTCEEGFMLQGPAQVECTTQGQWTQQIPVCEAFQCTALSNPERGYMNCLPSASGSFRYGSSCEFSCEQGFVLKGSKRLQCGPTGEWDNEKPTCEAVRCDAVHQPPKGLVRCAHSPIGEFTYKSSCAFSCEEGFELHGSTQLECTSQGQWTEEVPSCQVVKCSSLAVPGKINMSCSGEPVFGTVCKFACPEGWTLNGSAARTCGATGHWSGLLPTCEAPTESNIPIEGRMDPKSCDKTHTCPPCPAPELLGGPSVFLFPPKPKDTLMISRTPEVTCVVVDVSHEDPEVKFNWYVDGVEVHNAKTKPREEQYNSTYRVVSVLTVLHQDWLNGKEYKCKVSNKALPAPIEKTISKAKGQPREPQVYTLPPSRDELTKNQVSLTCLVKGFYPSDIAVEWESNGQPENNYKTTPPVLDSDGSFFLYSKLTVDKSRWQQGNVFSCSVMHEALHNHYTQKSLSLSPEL
# Assay info: Sialyl Lewis X Tyrosine Sulfate Assay (sLex TSA), E-selectin
# Reported conditions: inhibition of binding of sLex-tyrosine sulfate polyacrylamide ligand complex to selectin chimera
# Protocol: Compounds of the present invention are assayed on a molecular level for their ability to inhibit the binding of P-, L-, or E-selectin chimeric molecules to sLe^x and tyrosinesulfate residues linked to a polymeric matrix as a PSGL-1 substitute. Selected IC50-values are determined. Microtiter plates are coated overnight in carbonate buffer pH9.6 with goat anti human Fc mAB (10 μg/ml). […]
Value kind: pIC50
// pIC50 is dimensionless: -log10 of concentration (M)

In: # query: pIC50 of entry O=C(O)Cc1ccc(-c2cccc(NC(=O)c3cccc(-c4c(O)cc(O)cc4O)c3)c2)s1
Out: 5.24

In: // repeat for O=C(Cc1c(O)cc(O)cc1O)Nc1cccc(C(=O)O)c1 and report
Out: 4.39

In: // repeat for O=C(O)Cc1ccc(-c2ccccc2NC(=O)Cc2c(O)cc(O)cc2O)s1 and report
Out: 3.98

In: // repeat for O=C(O)c1cccc(NC(=O)c2cccc(-c3c(O)cc(O)cc3O)c2)c1 and report
Out: 4.56

In: // repeat for O=C(O)Cc1ccc(-c2ccccc2NC(=O)c2cccc(-c3c(O)cc(O)cc3O)c2)s1 and report
Out: 4.66

In: // repeat for O=C(Nc1ccccc1-c1ccc(C(=O)O)s1)c1cccc(-c2c(O)cc(O)cc2O)c1 and report
Out: 4.48

In: // repeat for Cc1oc(-c2ccc(NC(=O)c3cccc(-c4c(O)cc(O)cc4O)c3)cc2)cc1C(=O)O and report
Out: 5.11

In: // repeat for O=C(Nc1ccccc1-c1cccs1)c1cccc(-c2c(O)cc(O)cc2O)c1 and report
Out: 4.55

In: // repeat for Cc1oc(-c2ccc(NC(=O)Cc3c(O)cc(O)cc3O)cc2)cc1C(=O)O and report
Out: 4.91

====

# Test system: human P-Selectin-IgG-chimera (Homo sapiens, UniProt P16109)
# Sequence (P16109 with tags, fused parts or gaps limits assumed): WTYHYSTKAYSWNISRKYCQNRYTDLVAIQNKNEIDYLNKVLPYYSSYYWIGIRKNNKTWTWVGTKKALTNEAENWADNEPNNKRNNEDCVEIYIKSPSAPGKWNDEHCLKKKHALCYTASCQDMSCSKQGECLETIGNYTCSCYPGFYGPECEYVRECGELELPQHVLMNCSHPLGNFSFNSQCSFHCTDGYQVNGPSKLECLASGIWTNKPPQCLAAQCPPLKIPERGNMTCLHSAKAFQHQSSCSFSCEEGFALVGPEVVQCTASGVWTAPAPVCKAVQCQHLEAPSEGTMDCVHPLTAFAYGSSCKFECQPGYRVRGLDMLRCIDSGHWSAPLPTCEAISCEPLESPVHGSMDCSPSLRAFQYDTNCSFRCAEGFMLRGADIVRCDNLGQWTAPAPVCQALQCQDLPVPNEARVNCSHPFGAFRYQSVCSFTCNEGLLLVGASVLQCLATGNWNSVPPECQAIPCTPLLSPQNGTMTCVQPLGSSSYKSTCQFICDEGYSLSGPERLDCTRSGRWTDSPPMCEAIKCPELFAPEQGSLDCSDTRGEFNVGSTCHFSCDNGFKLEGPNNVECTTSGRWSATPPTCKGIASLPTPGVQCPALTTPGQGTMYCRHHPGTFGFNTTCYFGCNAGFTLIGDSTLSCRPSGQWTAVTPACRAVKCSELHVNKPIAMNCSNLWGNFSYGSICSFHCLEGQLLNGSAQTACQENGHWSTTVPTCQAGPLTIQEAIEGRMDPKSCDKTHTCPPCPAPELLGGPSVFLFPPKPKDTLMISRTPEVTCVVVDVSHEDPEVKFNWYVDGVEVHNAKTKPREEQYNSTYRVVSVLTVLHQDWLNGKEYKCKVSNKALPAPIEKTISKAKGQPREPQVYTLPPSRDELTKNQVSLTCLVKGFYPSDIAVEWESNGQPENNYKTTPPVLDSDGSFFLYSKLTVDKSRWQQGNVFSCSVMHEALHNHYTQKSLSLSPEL
# Assay info: Sialyl Lewis X Tyrosine Sulfate Assay (sLex TSA), P-selectin
# Reported conditions: inhibition of binding of sLex-tyrosine sulfate polyacrylamide ligand complex to selectin chimera
Value kind: pIC50
// pIC50 is dimensionless: -log10 of concentration (M)

In: # query: pIC50 of entry O=C(O)Cc1ccc(-c2ccccc2NC(=O)c2cccc(-c3c(O)cc(O)cc3O)c2)s1
Out: 4.76

In: // repeat for O=C(O)c1cccc(NC(=O)c2cccc(-c3c(O)cc(O)cc3O)c2)c1 and report
Out: 4.63

In: // repeat for O=C(Cc1c(O)cc(O)cc1O)Nc1cccc(C(=O)O)c1 and report
Out: 4.43

In: // repeat for Cc1oc(-c2ccc(NC(=O)c3cccc(-c4c(O)cc(O)cc4O)c3)cc2)cc1C(=O)O and report
Out: 5.28

In: // repeat for O=C(Nc1ccccc1-c1cccs1)c1cccc(-c2c(O)cc(O)cc2O)c1 and report
Out: 5.09

In: // repeat for O=C(Nc1ccccc1-c1ccc(C(=O)O)s1)c1cccc(-c2c(O)cc(O)cc2O)c1 and report
Out: 4.56

In: // repeat for O=C(O)Cc1ccc(-c2cccc(NC(=O)c3cccc(-c4c(O)cc(O)cc4O)c3)c2)s1 and report
Out: 5.22

In: // repeat for O=C(O)Cc1ccc(-c2ccccc2NC(=O)Cc2c(O)cc(O)cc2O)s1 and report
Out: 4.06

In: // repeat for Cc1oc(-c2ccc(NC(=O)Cc3c(O)cc(O)cc3O)cc2)cc1C(=O)O and report
Out: 4.68
